Target: Serine/threonine-protein phosphatase 2A catalytic subunit alpha isoform (Bos taurus) (UniProt P67774)
Sequence (P67774 whole entry, looked up, canonical isoform): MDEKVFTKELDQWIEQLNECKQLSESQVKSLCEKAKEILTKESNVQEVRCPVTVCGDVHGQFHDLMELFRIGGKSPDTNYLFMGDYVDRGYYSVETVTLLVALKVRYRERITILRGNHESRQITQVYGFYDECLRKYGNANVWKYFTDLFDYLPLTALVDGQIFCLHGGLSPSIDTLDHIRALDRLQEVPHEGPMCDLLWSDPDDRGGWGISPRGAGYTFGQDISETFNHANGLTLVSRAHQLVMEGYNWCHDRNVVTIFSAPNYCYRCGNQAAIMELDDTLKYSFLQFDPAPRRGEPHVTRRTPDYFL
Test: PP2A phosphatase inhibition, late-stage follow-up, selectivity assay for PP5 inhibitor project, biochemical, bovine brain PP2A, 33P-phosphohistone, single concentration, round 5 (AID 624443)
Details: purified bovine PP2A, 33P-phosphohistone dephosphorylation, scintillation; at 50 µM; hits give high values
QUANTITY MEASURED: inhibition (%)

Some solved entries appear below for comparison.
COc1ccc(-c2n[nH]nc2C(=O)O)cc1
-5.38
O=C(O)c1n[nH]nc1-c1ccc(F)cc1
-0.575

1: O=C(O)c1n[nH]nc1-c1ccccc1F
2: O=C(O)c1n[nH]nc1-c1ccccc1O
3: COc1ccccc1-c1n[nH]nc1C(=O)O
4: O=C(O)c1n[nH]nc1-c1cccc(F)c1
[in] Falling order of inhibition, please. A ranking is expressed here by listing the labels in the requested order.
[out] 3, 1, 4, 2
(3: 24.7%, 1: 3.76%, 4: 1.89%, 2: 0.275%)
